Origin of the recorded values: patent US20140249141A1

molecular target: human α4β2 (Homo sapiens, UniProt P17787+P43681); construct: expressed in transfected cells; membranes prepared from the cells; assay: Competition binding to human α4β2 nicotinic receptor in membrane preparations
measured-attribute: pKi
Answer as the number alone; pKi is minus log10 of concentration in mol/L.

Task: Value lookup for pKi; key = O=c1cc(N2CCN3CCC2CC3)nc2c3ccccc3on12
Output: 5.92

----------
# Lookup of reported pKi keyed by entry
target: human α4β2 (Homo sapiens, UniProt P17787+P43681); construct: expressed in transfected cells; membranes prepared from the cells; test: Competition binding to human α4β2 nicotinic receptor in membrane preparations; conditions: SH-EP1/human α4β2 cell membranes, [3H]-nicotine, Cheng-Prusoff; read-out: Human α4β2 Ki
Answer as the number alone; pKi is minus log10 of concentration in mol/L.

O=c1cc(N2CCN3CCC2CC3)nc2cc(-c3ccccc3)on12 | 5.92

# ---- query molecule ----
Task: Value lookup for pKi; key = Cc1cc2nc(N3CCN4CCC3CC4)cc(=O)n2o1 [drawing 5]
Output: 5.49

----------
target: human α7 (Homo sapiens, UniProt P36544); construct: expressed in transfected cells; host or cells: HEK cells expressing human α7 and RIC3, obtained from J. Lindstrom, U. Pennsylvania; membranes prepared from the cells; assay: Competition binding to human α7 nicotinic receptor in membrane preparations; conditions: HEK/human α7/RIC3 cell membranes, [3H]-epibatidine, Cheng-Prusoff; read-out: Human α7 Ki
measured-attribute: pKi
Answer as the number alone; pKi is minus log10 of concentration in mol/L.

Task: Value lookup for pKi; key = O=c1cc(N2CCN3CCC2CC3)nc2cc(-c3ccccc3)on12
Output: 6.55
